I'd be grateful if you could share measured TNF-a concentration in plasma, % of the maximal response (LPS-Vehicle) for these entries.
# Test system: LPS induced TNF-α in plasma
# Experiment summary: Inhibition of LPS induced TNFa production in rats in vivo (experimental setup 2)
# Design: species or system rat
# Test conditions: iv LPS infusion, 200 μg/kg body weight iv, 120 minutes after initiation of LPS infusion
Expressed in %, but write only the number.

// returns reported TNF-a concentration in plasma, % of the maximal response (LPS-Vehicle) for input Ac-Lys-Lys-Lys-Lys-Lys-Lys-Ser-Tyr-Ser-Met-Glu-His-Phe-Arg-Trp-Gly-Lys-Pro-Val-NH2 (Ac-KKKKKKSYSMEHFRWGKPV-NH2) [a-MSH analogue #1] 9

// returns reported TNF-a concentration in plasma, % of the maximal response (LPS-Vehicle) for input Ac-Lys-Lys-Lys-Lys-Lys-Lys-Ser-Tyr-Ser-Nle-Glu-His-(D-Phe)-Arg-Trp-Gly-Lys-Pro-Val-NH2 (KKKKKKSYSXEHFRWGKPV; N-acetyl, Nle, D-Phe, C-amide) [a-MSH analogue #2] 9

// returns reported TNF-a concentration in plasma, % of the maximal response (LPS-Vehicle) for input Ac-Lys-Lys-Lys-Lys-Lys-Lys-Ser-Ser-Ile-Ile-Ser-His-Phe-Arg-Trp-Gly-Lys-Pro-Val-NH2 (Ac-KKKKKKSSIISHFRWGKPV-NH2) [a-MSH analogue #4] 12

// returns reported TNF-a concentration in plasma, % of the maximal response (LPS-Vehicle) for input Ac-Lys-Lys-Lys-Lys-Lys-Lys-Ser-Tyr-Ser-Nle-Glu-His-D-Nal-Arg-Trp-Gly-Lys-Pro-Val-NH2 (KKKKKKSYSXEHXRWGKPV; not fully specified; N-acetyl, Nle, D-Nal, C-amide) [a-MSH analogue #3] 11
